- TEST: Portal vein study: oral PK in PVC/CAC dual cannulated rat
- Assay type: in vivo
- SETTINGS: carotid artery plasma, prodrug 10 mg/kg oral, analyte prodrug, read-out: Tmax (h), prodrug, Carotid sampling
RESULT_TYPE: Tmax (h)
Return type: number; implicit unit h.

Some entries whose results are on file:
CCCN(C)C(=O)n1c(=O)n(Cc2ccc(Cl)cc2)c2nc([S@](=N)(=O)CC)nc(N)c21 [Example 41-A] = 0.19
CCN(C)C(=O)n1c(=O)n(Cc2ccc(Cl)cc2)c2nc([S@@](=N)(=O)CC)nc(N)c21 [Example 42-A] = 0.22
CCCN(C)C(=O)n1c(=O)n(Cc2ccccc2)c2nc(S(=N)(=O)CCC)nc(N)c21 (single isomer, unassigned) [Example 1-B] = 0.083
CCCN(C)C(=O)n1c(=O)n(Cc2ccc(Cl)cc2)c2nc([S@@](=N)(=O)CC)nc(N)c21 [Example 41-B] = 0.25

Kindly consider the entry below.
Identify measured Tmax corresponding to CCCN(C)C(=O)n1c(=O)n(Cc2ccc(C)cc2)c2nc([S@](=N)(=O)CC)nc(N)c21 [Example 43-A]
0.22

###

- TARGET_OF_ASSAY: human TLR7 (Homo sapiens)
- TEST: HEK293-Blue-hTLR-7 cells assay (SEAP reporter)
- Type: cell-based
- SETTINGS: HEK293-Blue-hTLR-7 cells, SEAP reporter, 20 hrs; prodrug; read-out: HEK293-hTLR-7 EC50 (Prodrug)
RESULT_TYPE: pEC50
On this scale, pEC50 is minus log10 of a concentration expressed in M (mol/L).

Some entries whose results are on file:
CCC[S@](=N)(=O)c1nc(N)c2c(n1)n(Cc1ccc(C)cc1)c(=O)n2C(=O)N1CCCC1 [Example 37-A] = 4.58
CCCCN(C)C(=O)OCCN(C)C(=O)n1c(=O)n(Cc2ccccc2)c2nc(S(=N)(=O)CCC)nc(N)c21 (stereo not drawn) [Example 29] = 4.31
CCCN(C)C(=O)n1c(=O)n(Cc2ccc(Cl)cc2)c2nc(S(=N)(=O)CC)nc(N)c21 (stereo not drawn) [Example 41] = 4.44
CCCN(C)C(=O)n1c(=O)n(Cc2ccccc2)c2nc(S(=N)(=O)CCC)nc(N)c21 (single isomer, unassigned) [Example 1-B] = 4.57
CCCS(=N)(=O)c1nc(N)c2c(n1)n(Cc1ccc(C)cc1)c(=O)n2C(=O)N(C)CC (stereo not drawn) [Example 39] = 5.37

Identify measured pEC50 corresponding to CCCS(=N)(=O)c1nc(N)c2c(n1)n(Cc1ccccc1)c(=O)n2C(=O)N(CCOC)CCOC (stereo not drawn) [Example 8]
5.68

Identify measured pEC50 corresponding to CCN(C)C(=O)n1c(=O)n(Cc2ccc(C)cc2)c2nc([S@@](=N)(=O)CC)nc(N)c21 [Example 44-A]
4.18

Identify measured pEC50 corresponding to CCCCN(C)C(=O)n1c(=O)n(Cc2ccc(C)cc2)c2nc(S(=N)(=O)CCC)nc(N)c21 (stereo not drawn) [Example 40]
4.28

###

Entries and their measured solubility thermodynamic follow.
- TEST: LYSA solubility study
- Assay type: physicochemical
- SETTINGS: phosphate buffer, pH 6.5, aqueous buffer, thermodynamic from solid, 0.05M phosphate buffer pH 6.5, read-out: LYSA of Prodrugs
Return type: number; implicit unit µg/mL.

Some entries whose results are on file:
CCCS(=N)(=O)c1nc(N)c2c(n1)n(Cc1ccccc1)c(=O)n2C(=O)N(C)CCOC(=O)N(CC)CC (stereo not drawn) = 125
CCN(C)C(=O)n1c(=O)n(Cc2ccc(Br)cc2)c2nc(S(=N)(=O)CC)nc(N)c21 (single isomer, unassigned) = 305

Kindly consider the entry below.
Identify measured solubility thermodynamic corresponding to CCCS(=N)(=O)c1nc(N)c2c(n1)n(Cc1ccccc1)c(=O)n2C(=O)N(CCOC)CCOC (stereo not drawn)
620

###

Entries and their measured concentration at 1 h follow.
- TEST: Single dose PK study in male Wister-Han rats
- Format: in vivo
- SETTINGS: male, Wister-Han, rat, plasma, po, 5 mg/kg, 5 mg/kg oral dosing of active form, 1 h
Return type: number; implicit unit nM.

CC[S@](=N)(=O)c1nc(N)c2[nH]c(=O)n(Cc3ccc(Cl)cc3)c2n1 (single isomer, unassigned) [Compound 41c-A] = 32.3

Identify measured concentration at 1 h corresponding to CCS(=N)(=O)c1nc(N)c2[nH]c(=O)n(Cc3ccc(F)cc3)c2n1 (single isomer, unassigned) [Compound 45e-A]
58.1

Identify measured concentration at 1 h corresponding to CC[S@@](=N)(=O)c1nc(N)c2[nH]c(=O)n(Cc3ccc(Cl)cc3)c2n1 (single isomer, unassigned) [Compound 41c-B]
2.04

Identify measured concentration at 1 h corresponding to CCCCOc1nc(N)c2c(n1)N(Cc1cccc(CN3CCCC3)c1)CC(=O)N2 [GS9620, reference compound]
83.4

###

- TEST: LYSA solubility study
- Type: physicochemical
- SETTINGS: phosphate buffer, pH 6.5, aqueous buffer, thermodynamic from solid, 0.05M phosphate buffer pH 6.5, read-out: LYSA of Prodrugs
Entries and their measured solubility thermodynamic follow.
Return type: number; implicit unit µg/mL.

CCCN(C)C(=O)n1c(=O)n(Cc2ccc(C)cc2)c2nc([S@@](=N)(=O)CC)nc(N)c21 (single isomer, unassigned) = 170
CCCS(=N)(=O)c1nc(N)c2c(n1)n(Cc1ccccc1)c(=O)n2C(=O)N(C)CCOC (stereo not shown) [Example 2] = 615

Identify measured solubility thermodynamic corresponding to CCCS(=N)(=O)c1nc(N)c2c(n1)n(Cc1ccccc1)c(=O)n2C(=O)N(C)[C@@H](C)C(=O)OCC (stereo partly shown)
190

###

Entries and their measured EC50 follow.
- TARGET_OF_ASSAY: UniProt:Q9NYK1
- Sequence (Q9NYK1 27-1049): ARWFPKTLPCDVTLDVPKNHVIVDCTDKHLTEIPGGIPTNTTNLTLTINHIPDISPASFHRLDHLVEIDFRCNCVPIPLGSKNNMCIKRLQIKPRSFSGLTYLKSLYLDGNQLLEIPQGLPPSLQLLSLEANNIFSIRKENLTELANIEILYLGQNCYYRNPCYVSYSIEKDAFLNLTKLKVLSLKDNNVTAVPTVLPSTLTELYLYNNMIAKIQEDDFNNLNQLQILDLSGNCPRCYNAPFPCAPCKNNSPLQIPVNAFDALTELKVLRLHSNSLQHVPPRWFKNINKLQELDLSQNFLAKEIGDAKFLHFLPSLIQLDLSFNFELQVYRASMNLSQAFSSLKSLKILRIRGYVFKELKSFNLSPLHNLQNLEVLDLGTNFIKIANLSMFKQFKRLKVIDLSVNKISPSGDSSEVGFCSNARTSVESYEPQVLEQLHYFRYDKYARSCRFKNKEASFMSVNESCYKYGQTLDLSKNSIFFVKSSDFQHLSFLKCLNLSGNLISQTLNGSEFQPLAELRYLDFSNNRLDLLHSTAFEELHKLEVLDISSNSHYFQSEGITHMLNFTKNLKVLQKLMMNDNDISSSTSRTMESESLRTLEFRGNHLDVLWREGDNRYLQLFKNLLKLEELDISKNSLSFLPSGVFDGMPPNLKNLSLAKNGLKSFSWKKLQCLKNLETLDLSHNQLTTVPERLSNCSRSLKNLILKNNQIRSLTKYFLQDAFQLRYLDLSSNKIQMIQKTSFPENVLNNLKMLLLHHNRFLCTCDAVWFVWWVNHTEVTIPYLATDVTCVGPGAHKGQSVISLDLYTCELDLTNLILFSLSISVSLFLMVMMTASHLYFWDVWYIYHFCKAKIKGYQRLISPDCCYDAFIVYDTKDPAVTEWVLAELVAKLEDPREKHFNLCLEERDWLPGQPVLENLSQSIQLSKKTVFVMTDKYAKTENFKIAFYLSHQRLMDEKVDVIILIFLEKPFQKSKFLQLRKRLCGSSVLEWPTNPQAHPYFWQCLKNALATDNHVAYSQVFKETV
- TEST: HEK293-Blue-hTLR-7 cells assay (SEAP reporter)
- Type: cell-based
- SETTINGS: HEK293-Blue-hTLR-7 cells, SEAP reporter, 20 hrs; prodrug; read-out: HEK293-hTLR-7 EC50 (Prodrug)
The answer consists of two parts: a number and, after it, its unit.

Some entries whose results are on file:
CCCS(=N)(=O)c1nc(N)c2c(n1)n(Cc1ccccc1)c(=O)n2C(=O)N(C)CCN(C)C(C)=O (centres unmarked) [Example 25] = 24.2 µM
CCCN(C)C(=O)n1c(=O)n(Cc2ccc(Cl)cc2)c2nc([S@@](=N)(=O)CC)nc(N)c21 [Example 41-B] = 32.1 µM
CCCS(=N)(=O)c1nc(N)c2c(n1)n(Cc1ccccc1)c(=O)n2C(=O)N(C)CCOC (centres unmarked) [Example 2] = 32 µM

Kindly consider the entry below.
Identify measured EC50 corresponding to CCCS(=N)(=O)c1nc(N)c2c(n1)n(Cc1ccccc1)c(=O)n2C(=O)N(C)CCC(=O)OCC (centres unmarked) [Example 15]
494 µM
